Below are IC50 measurements against RORc (Homo sapiens, UniProt P51449) drawn from the literature.
Report the value in nM with no unit label.

Examples with their reported IC50 follow.
| molecule | unitString | IC50 |
| --- | --- | --- |
| CC1(C)[C@H]2CC[C@]1(c1ccnc(-n3ccc(CC(N)=O)n3)n1)c1nnc(-c3c(F)cccc3F)cc12 | nM | 12.2 |
| CC1(C)[C@H]2CC[C@]1(C(=O)N1CC(F)(F)C1)c1nnc(-c3c(F)cccc3F)cc12 | nM | 643 |
| CC1(C)[C@H]2CC[C@]1(c1cncc(C(=O)NC(CO)CO)n1)c1nnc(-c3c(F)cccc3F)cc12 | nM | 58.9 |
| CC(=O)Nc1ccc(-c2ccc(CN3[C@@H](C)CCC(c4ccccc4)S3(=O)=O)c(F)c2)cn1 (stereo partly shown) | nM | 1910 |
| CC1(C)[C@H]2CC[C@]1(c1ccnc(-n3cnnc3)n1)c1nnc(-c3c(F)cccc3F)cc12 | nM | 13.6 |

// fetch IC50 given entry `C[C@H]1CC[C@H](c2ccccc2)S(=O)(=O)N1Cc1ccc([C@]2(C(N)=O)C[C@@H](O)C2)cc1F` 55.2

Give IC50 for CNC(=O)C1CCN(C(=O)[C@]23CC[C@H](c4cc(-c5c(F)cccc5F)nnc42)C3(C)C)C1 (stereo partly shown) 904
